Give measured IC50 for each item. Keep answers brief.
# MEASUREMENT TARGET: KRas^G12R (Homo sapiens, UniProt P01116, G12R)
# Construct: […]; biotin (biotinylated)
# Sequence (P01116 1-169 isoform P01116-2 G12R): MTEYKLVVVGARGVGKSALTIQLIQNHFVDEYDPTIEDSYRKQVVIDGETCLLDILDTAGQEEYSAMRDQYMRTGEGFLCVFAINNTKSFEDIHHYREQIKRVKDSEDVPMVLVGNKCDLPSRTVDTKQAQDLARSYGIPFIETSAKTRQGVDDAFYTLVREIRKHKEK
# PROCEDURE DETAILS: KRas binding assay (TR-FRET displacement of Cy5 labelled tracer)
Express it in nM; write the number only.

For this compound ( CCc1cccc2cccc(N3CCc4c(nc(OCC56CCCN5CCC6)nc4N4CCCCCCC4)C3)c12 ), measured IC50 is 663

For this compound ( CCc1cccc2cccc(N3CCc4c(nc(OCC56CCCN5CCC6)nc4NCCc4ccno4)C3)c12 ), measured IC50 is 5120

For this compound ( CCc1cccc2cccc(N3CCc4c(nc(OCC56CCCN5CCC6)nc4NCCNS(N)(=O)=O)C3)c12 ), measured IC50 is 7650

For this compound ( CC1(O)COCCN(c2nc(OC[C@@]34CCCN3C[C@H](F)C4)nc3c2CCN(c2cc(O)cc4ccc(F)c(Br)c24)C3)C1 (stereo partly shown) ), measured IC50 is 4

###

Give measured IC50 for each item. Keep answers brief.
# MEASUREMENT TARGET: KRas^G12D (Homo sapiens, UniProt P01116, G12D)
# Construct: […]; biotin (biotinylated)
# Sequence (P01116 1-169 isoform P01116-2 G12D): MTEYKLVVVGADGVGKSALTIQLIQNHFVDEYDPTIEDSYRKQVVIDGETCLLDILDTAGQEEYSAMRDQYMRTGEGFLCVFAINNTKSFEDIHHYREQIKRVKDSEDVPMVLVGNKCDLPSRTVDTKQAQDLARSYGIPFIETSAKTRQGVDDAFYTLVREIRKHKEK
# PROCEDURE DETAILS: KRas binding assay (TR-FRET displacement of Cy5 labelled tracer)
Express it in nM; write the number only.

For this compound ( CCc1c(F)ccc2cc(O)cc(N3CCc4c(nc(OC[C@@]56CCCN5C[C@H](F)C6)nc4NCc4ccc5nncn5c4)C3)c12 ), measured IC50 is 31

For this compound ( CCc1c(F)ccc2cc(O)cc(N3CCc4c(nc(OC[C@@]56CCCN5C[C@H](F)C6)nc4N4CCC(c5[nH]ncc5N)C4)C3)c12 (stereo partly shown) ), measured IC50 is 110

For this compound ( CCc1cccc2cccc(N3CCc4c(nc(OCC56CCCN5CCC6)nc4N4CC5CC(O)CC4C5)C3)c12 (stereo not shown) ), measured IC50 is 1300

###

# MEASUREMENT TARGET: KRas^G12V (Homo sapiens, UniProt P01116, G12V)
# Construct: […]; biotin (biotinylated)
# Sequence (P01116 1-169 isoform P01116-2 G12V): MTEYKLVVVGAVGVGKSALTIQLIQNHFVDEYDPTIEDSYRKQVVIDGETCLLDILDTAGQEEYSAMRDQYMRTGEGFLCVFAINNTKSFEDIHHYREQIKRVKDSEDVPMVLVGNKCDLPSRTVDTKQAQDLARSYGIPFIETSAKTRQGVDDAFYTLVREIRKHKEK
# PROCEDURE DETAILS: KRas binding assay (TR-FRET displacement of Cy5 labelled tracer)
Give measured pIC50 for each item. Keep answers brief.
The scale used: pIC50 is minus the common logarithm of the concentration in molar units.

For this molecule ( CCc1c(F)ccc2cc(O)cc(N3CCc4c(nc(OC[C@@]56CCCN5C[C@H](F)C6)nc4N4C[C@H]5CC[C@@H](O)[C@H]5C4)C3)c12 ), measured pIC50 is 7.28

For this molecule ( Cc1cccc2cccc(N3CCc4c(nc(OCC56CCCN5CCC6)nc4N4CC5C(=O)NC(=O)C5C4)C3)c12 (stereo not shown) ), measured pIC50 is 6.89

For this molecule ( CCc1c(F)ccc2cc(O)cc(N3CCc4c(nc(OC[C@@]56CCCN5C[C@H](F)C6)nc4N4C[C@H]5C[C@@H](O)C[C@H]5C4)C3)c12 ), measured pIC50 is 7.92

###

# MEASUREMENT TARGET: KRas^G12V (Homo sapiens, UniProt P01116, G12V)
# Construct: […]; biotin (biotinylated)
# PROCEDURE DETAILS: KRas binding assay (TR-FRET displacement of Cy5 labelled tracer)
pIC50: −log10 of the molar value.
MEASURED QUANTITY: pIC50

For this compound ( O=C1NC(=O)C2(CCCN(c3nc(OC[C@@]45CCCN4C[C@H](F)C5)nc4c3CCN(c3cc(O)cc5ccc(F)c(Br)c35)C4)C2)N1 (stereo partly drawn) [Example 217] ), measured pIC50 is ≥ 8.70

For this compound ( O=C1CC2(CCCN(c3nc(OC[C@@]45CCCN4C[C@H](F)C5)nc4c3CCN(c3cc(O)cc5ccc(F)c(Cl)c35)C4)C2)N1 (stereo partly drawn) [Example 70] ), measured pIC50 is ≥ 8.70

For this compound ( CCc1c(F)ccc2cc(O)cc(N3CCc4c(nc(OC[C@@]56CCCN5C[C@H](F)C6)nc4N4CC5C(=O)NC(=O)C5C4)C3)c12 (stereo partly drawn) [Example 24] ), measured pIC50 is ≥ 8.70

###

# MEASUREMENT TARGET: KRas^G12V (Homo sapiens, UniProt P01116, G12V)
# Construct: […]; biotin (biotinylated); purchased Accelegan Inc
# PROCEDURE DETAILS: KRas binding assay (TR-FRET displacement of Cy5 labelled tracer)
Give measured IC50 for each item. Keep answers brief.

For CCc1c(F)ccc2cc(O)cc(N3CCc4c(nc(OC[C@@]56CCCN5C[C@H](F)C6)nc4N4CCC(O)C(CO)CC4)C3)c12 (some centres unmarked) on KRas^G12V (Homo sapiens, UniProt P01116, G12V), measured IC50 was ≤ 2 nM

For CCc1c(F)ccc2cc(O)cc(N3CCc4c(nc(OCC5(CN(C)C)CC5)nc4N4CCCC5(C4)NC(=O)NC5=O)C3)c12 (centres unmarked) on KRas^G12V (Homo sapiens, UniProt P01116, G12V), measured IC50 was ≤ 2 nM

For OCC1COCCN(c2nc(OC[C@@]34CCCN3C[C@H](F)C4)nc3c2CCN(c2cc(O)cc4ccc(F)c(Br)c24)C3)C1 (some centres unmarked) on KRas^G12V (Homo sapiens, UniProt P01116, G12V), measured IC50 was ≤ 2 nM

For CN(C)C(=O)c1cc2n(n1)CCCN(c1nc(OC[C@@]34CCCN3C[C@H](F)C4)nc3c1CCN(c1cc(O)cc4ccc(F)c(Cl)c14)C3)C2 on KRas^G12V (Homo sapiens, UniProt P01116, G12V), measured IC50 was ≤ 2 nM

For O=C1CC2(CCCN(c3nc(OC[C@@]45CCCN4C[C@H](F)C5)nc4c3CCN(c3cc(O)cc5ccc(F)c(Br)c35)C4)C2)N1 (some centres unmarked) on KRas^G12V (Homo sapiens, UniProt P01116, G12V), measured IC50 was ≤ 2 nM

###

# MEASUREMENT TARGET: KRas^G12R (Homo sapiens, UniProt P01116, G12R)
# Construct: […]; biotin (biotinylated); purchased Accelegan Inc
# PROCEDURE DETAILS: KRas binding assay (TR-FRET displacement of Cy5 labelled tracer)
Give measured IC50 for each item. Keep answers brief.

For this molecule ( CCc1c(F)ccc2cc(O)cc(N3CCc4c(nc(OCC5(CN(C)C)CC5)nc4N4CCC[C@@](C)(O)C4)C3)c12 ), measured IC50 is ≤ 2 nM

For this molecule ( CCc1c(F)ccc2cc(O)cc(N3CCc4c(nc(OC[C@@]56CCCN5C[C@H](F)C6)nc4N4CCOCC(CO)C4)C3)c12 (stereo partly drawn) ), measured IC50 is ≤ 2 nM

For this molecule ( CCc1c(F)ccc2cc(O)cc(N3CCc4c(nc(OC[C@@]56CCCN5C[C@H](F)C6)nc4N4CCOCC(O)C4)C3)c12 (stereo partly drawn) ), measured IC50 is ≤ 2 nM
